Test system: MDA-MB-231
Test: Cytotoxicity against human MDA-MB-231 cells by MTT assay
Assay type: functional, cell-based
Consider the following molecules and their measured IC50 readings.
Return type: number; implicit unit µg/mL.

C=C(CC[C@@H](C)[C@H]1CC[C@H]2[C@@H]3CC(=O)[C@]4(O)C[C@@H](O)C[C@H](O)[C@]4(C)[C@H]3CC[C@]12C)C(C)C [GIBBEROKETOSTEROL] : 14.4

(Q) Kindly indicate its recorded IC50. Item: C=C(CC[C@@H](C)[C@H]1CC[C@H]2[C@@H]3C[C@@H]4O[C@@]45C[C@@H](O)C[C@H](O)[C@]5(C)[C@H]3CC[C@]12C)C(C)C [GIBBEROEPOXYSTEROL]
(A) 15.9

Ref: ChEMBL document CHEMBL1158053
